system: NCI-H460; assay: NCI tumour cell line growth inhibition, 48 h
Calls of active or inactive are those of the source. Cut-off read from the data, not from the text of the source: active = GI50 up to about 1.1 µM and inactive = higher.
Outcomes: active, inactive

# molecule, target.or.test.system, label
measured = [
    ("COC(=O)C(C(=O)C(=O)NC1=C(Cl)C(=O)c2ccccc2C1=O)c1csc(-n2nc(-c3ccccc3)cc2-c2ccccc2)n1 (centres undefined)", "NCI-H460", "inactive"),
    ("Cn1c(=O)n2n(c1=O)C1C(=CC2)C2C=CC1n1c(=O)n(C)c(=O)n12 (centres undefined)", "NCI-H460", "inactive"),
    ("O=C(CC(=O)n1nc(-c2ccccc2)c(/N=N/c2ccc(Cl)cc2)c1-c1ccccc1)Nc1cccc(Cl)c1", "NCI-H460", "inactive"),
    ("COC1=NN2C(OC)(c3ccccc3)c3c(-c4ccccc4)sc(-c4ccccc4)c3C2(c2ccccc2)S1 (centres undefined)", "NCI-H460", "inactive"),
    ("O=C1c2ccccc2/N=C(/c2cc3c(cc2Cl)Sc2nccn2S3(=O)=O)OS(=O)(=O)N1c1ccccc1", "NCI-H460", "inactive"),
    ("CN(C)c1nc(N(C)C)nc(N(C)C23CC4CC(CC(C4)C2)C3)n1", "NCI-H460", "inactive"),
    ("COC(=O)/C=C1\\C(=O)N(C(C)=O)c2ccccc21", "NCI-H460", "inactive"),
    ("COC(=O)c1c2c(cc3c1CC1(C3)Cc3ccc4c(c3C1=O)CCC4)CCC2 (centres undefined)", "NCI-H460", "inactive"),
    ("COc1ccc(/C(Cl)=C(\\C=O)c2ccc(F)cc2)cc1", "NCI-H460", "inactive"),
    ("O=C(c1ccc2ccccc2c1)N(Cc1cccnc1)C(=S)N(Cc1cccnc1)C(=O)c1ccc2ccccc2c1", "NCI-H460", "inactive"),
    ("COc1cc2oc(-c3ccc(O)cc3)c(OC3OC(C)C(O)C(O)C3O)c(=O)c2c(O)c1OC (centres undefined)", "NCI-H460", "inactive"),
    ("CCCCCCCCCCC(O)C1CCC(C(O)CCC(O)C2CCC(CCCCCCC[C@H](O)CC3=C[C@@H](C)OC3=O)O2)O1 (some centres undefined)", "NCI-H460", "inactive"),
    ("CC(C)C(C=O)C(O)(C(F)(F)F)C(F)(F)F (centres undefined)", "NCI-H460", "inactive"),
    ("COc1ccc(C(=O)Sc2c(-c3ccccc3)c(=O)n(-c3ccccc3)c(=S)n2-c2ccccc2)cc1", "NCI-H460", "inactive"),
    ("COc1cc(C2c3cc4c(cc3OC(NNC(N)=S)C2C)OCO4)cc(OC)c1OC (centres undefined)", "NCI-H460", "active"),
    ("O=C1Nc2nc3ccccc3n2N=C2CCCC12 (centres undefined)", "NCI-H460", "inactive"),
    ("CSCCC(NC(=O)OC(C)(C)C)C(=O)NCCNc1ccc(NCCNC(=O)C(CCSC)NC(=O)OC(C)(C)C)c2c1C(=O)c1ccccc1C2=O (centres undefined)", "NCI-H460", "inactive"),
    ("C=C1CCCCCCCCC/C=C/1SCCCSC", "NCI-H460", "inactive"),
    ("O=C(NCC(C(=O)OCc1ccccc1)C(=O)OCc1ccccc1)OCc1ccccc1", "NCI-H460", "inactive"),
]
